system: GABAA receptor complex (TBPS binding); test: TBPS Binding Assay; set-up: species or system Wistar rats; conditions: [35S]TBPS 0.4 nM, GABA 1 μM, rat cerebral cortex membrane, +% inverse agonistic, 0% antagonistic
result_type: TBPS binding Variation Rate (%)

{"molecule": "CCc1noc(-c2cc3c(C4CC4)nccc3[nH]c2=O)n1 [Example 194]", "TBPS binding Variation Rate / %": 32}
{"molecule": "Cc1noc(-c2cc3c(-c4ccc(F)cc4)nccc3[nH]c2=O)n1 [Example 178]", "TBPS binding Variation Rate / %": 25}
{"molecule": "O=c1[nH]c2ccnc(-c3ccsc3)c2cc1-c1noc(C2CC2)n1 [Example 123]", "TBPS binding Variation Rate / %": 12}

1. CCc1noc(-c2cc3c(-c4cccc(Cl)c4)nccc3[nH]c2=O)n1 [Example 203]
2. CCc1nc(-c2cc3c(C4CC4C)nccc3[nH]c2=O)no1 (centres unmarked) [Example 18]
Could you please tell me which of these two has the higher TBPS binding Variation Rate: 1 or 2 ? Output the label that corresponds to your choice.
1
(1: 17%, 2: 10%)
